Assay: Inhibition of FGFR
Metric: log(10^6/IC50)

# annotated cases, reported log(10^6/IC50) shown
>  <Substance smiles>
CN1CCN(c2ccc(Nc3ncc4cc(-c5c(Cl)cccc5Cl)c(=O)n(C)c4n3)cc2)CC1

>  <log(10^6/IC50)>
4.29

$$$$
>  <Substance smiles>
Cn1c(=O)c(-c2c(Cl)cccc2Cl)cc2cncnc21

>  <log(10^6/IC50)>
1.3

$$$$
>  <Substance smiles>
CC(C)(C)NC(=O)Nc1nc2nc(N)ncc2cc1-c1cc(C(F)(F)F)cc(C(F)(F)F)c1

>  <log(10^6/IC50)>
1.3

$$$$
>  <Substance smiles>
CCOc1cc(OCC)cc(-c2cc3cnc(N)nc3nc2NC(=O)NC(C)(C)C)c1

>  <log(10^6/IC50)>
2.78

$$$$

I = CN(C)c1ncc2cc(-c3c(Cl)cccc3Cl)c(=O)n(C)c2n1
II = COc1cc(OC)cc(-c2cc3cnc(N)nc3n(C)c2=O)c1
// which entry has the larger log(10^6/IC50) value, I or II ? Respond with the label that goes with your answer.
II
(II: 3.9, I: 1.3)

---

Assay: Inhibition of FGFR
Metric: log(10^6/IC50)

A = Cc1ncc2cc(-c3c(Cl)cccc3Cl)c(=O)n(C)c2n1
B = Cn1c(=O)c(-c2c(Cl)cccc2Cl)cc2cnc(Nc3ccc(CC(=O)O)cc3)nc21
// which entry has the larger log(10^6/IC50) value, A or B ? Respond with the label that goes with your answer.
B
(B: 4.21, A: 1.3)

Reference for the values: ChEMBL document CHEMBL1143173
